Reference source for all entries: paper PMC10671360

System tested: recombinant α-syn fibrils (Homo sapiens)
Construct: made in house
Assay: Competition binding assay against [^3H]PiB, α-syn fibrils
Condition set: ratio of Ki, [^3H]PiB was used
Recorded endpoint: Selectivity tau/α-syn

A = FCCOCCOCCOc1cnc(-c2csc(-c3nc(-c4ccc5c(c4)OCO5)cs3)n2)nc1 [f7]
B = FCCOCCOCCOc1cnc(-c2csc(-c3nc(-c4cnc5c(c4)OCO5)cs3)n2)nc1 [f13]
C = COc1ccc(-c2csc(-c3nc(-c4cnc5c(c4)OCO5)cs3)n2)cc1OCCOCCF [f9]
Exercise: Could you arrange the 3 molecules above by Selectivity tau/α-syn, starting with the largest number? // format: requested-order list of labels
Key: C, B, A

1 = COc1ccc(-c2csc(-c3nc(-c4ccc5c(c4)OCO5)cs3)n2)cc1F [d2]
2 = FCCOCCOc1ccc(-c2csc(-c3nc(-c4cnc5c(c4)OCO5)cs3)n2)c(OCCOCCF)c1 [f20]
3 = COc1ccc(-c2csc(-c3nc(-c4cnc5c(c4)OCO5)cs3)n2)cc1F [d4]
Exercise: Rank entries according to their Selectivity tau/α-syn, from the largest number down. // format: requested-order list of labels
Key: 2, 1, 3
(2: 621.8, 1: 293.4, 3: 142.2)

* * *

System tested: Aβ1−42 fibrils (Homo sapiens, UniProt P05067)
Construct: 1 mg of β-amyloid1–42 peptide (Abcam, Cambridge, UK); purchased Abcam
Sequence (P05067 672-713): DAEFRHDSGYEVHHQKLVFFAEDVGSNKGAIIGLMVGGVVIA
Assay: Competition binding assay against [^3H]PiB, Aβ1−42 fibrils
Condition set: read-out: Ki Aβ
Recorded endpoint: Ki (nM)

Below: 3 compounds and their reported Ki.
1) FCCOCCOCCOc1ccc(-c2csc(-c3nc(-c4cnc5c(c4)OCO5)cs3)n2)cc1F [f10] :: 37.3
2) Fc1ncc(-c2csc(-c3nc(-c4cnc5c(c4)OCO5)cs3)n2)cn1 [d10] :: 214
3) FCCOc1cnc(-c2csc(-c3nc(-c4ccc5c(c4)OCO5)cs3)n2)nc1 [f5] :: 155

a = FCCOc1cnc(-c2csc(-c3nc(-c4cnc5c(c4)OCO5)cs3)n2)nc1 [f4]
b = FCCOCCOc1cnc(-c2csc(-c3nc(-c4ccc5c(c4)OCO5)cs3)n2)nc1 [f6]
Exercise: Hi there, can you help? I need to know whether a or b has lower measured Ki. # reply format: chosen label
Key: b

* * *

System tested: recombinant α-syn fibrils (Homo sapiens)
Construct: made in house
Assay: Competition binding assay against [^3H]PiB, α-syn fibrils
Condition set: ratio of Ki, [^3H]PiB was used
Recorded endpoint: Selectivity tau/α-syn

1. COc1ccc(-c2csc(-c3nc(-c4ccc5c(c4)OCO5)cs3)n2)cc1OCCOCCOCCF :: 380.6
2. Fc1ccc(-c2csc(-c3nc(-c4ccc5c(c4)OCO5)cs3)n2)cn1 :: 318.2
3. COc1ccc(-c2csc(-c3nc(-c4cnc5c(c4)OCO5)cs3)n2)cc1 :: 288.0
